- PROTOCOL SUMMARY: NCI Yeast Anticancer Drug Screen. Data for the rad50 strain (AID 155);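 also: 0% = growth of vehicle-only cultures of the same strain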
- RUN CONDITIONS: S. cerevisiae rad50 strain growth inhibition; at 50.0 µM; hits give high values
Compounds without any hit were thinned out: in the full panel of roughly 79,000, 15% have a hit. Activity calls are given as the source filed them. Rule as the data show it: active = growth inhibition above about 70%; inactive = the rest.
# key: entry, value: growth inhibition

Illustrative cases are given below, each with its answer.
>  <COMPOUND>
CCSC1(SCC)C(=O)OC2=C(CCCCC2)C1N(C)c1ccccc1 (stereo unspecified)

>  <growth inhibition>
-15.2% (inactive)

$$$$
>  <COMPOUND>
COc1cc(NCCC(=O)O)c2ncccc2c1

>  <growth inhibition>
-25.1% (inactive)

$$$$
>  <COMPOUND>
O=C(O)CC1CCCCCC1

>  <growth inhibition>
21.9% (inactive)

$$$$
>  <COMPOUND>
COc1cc(C(NC(N)=O)c2cc3c(cc2O)OCO3)cc(OC)c1O (stereo unspecified)

>  <growth inhibition>
-1.4% (inactive)

$$$$
>  <COMPOUND>
Cc1cccc(OCC(O)CN(Cc2ccsc2)c2ccccn2)c1 (stereo unspecified)

>  <growth inhibition>
18.4% (inactive)

$$$$

Task: Note down growth inhibition recorded for COc1cc2c(cc1OC)-c1cc3cc(OC)c(OC)cc3c(C)[n+]1CC2 (tested in a mixture with another compound)
Output: 6.25% (inactive)

Task: Entry CC(=O)OC1CCC2(C)C3=CCC4(C)C(C(C)=O)=CCC4C3CCC2C1 (stereo unspecified) needs its growth inhibition filled in; supply it.
Output: -27.9% (inactive)

====

Overview of reported growth inhibition across a group of compounds:
- PROTOCOL SUMMARY: NCI Yeast Anticancer Drug Screen. Data for the mlh1 rad18 strain (AID 175)
- RUN CONDITIONS: S. cerevisiae mlh1 rad18 strain growth inhibition; at 50.0 µM; hits give high values
The panel holds about 79,000 compounds, 15% with a hit somewhere; the sample as a whole holds those more often.
Note: unit % is implicit; provide only the numeric part.

Known results for compounds:
>  <COMPOUND>
COC1=CC(=O)C(c2cc(O)c(OC)cc2O)=CC1=O

>  <growth inhibition / %>
5.2

$$$$
>  <COMPOUND>
Cc1cc(O)c([N+](=O)[O-])c(C)c1[N+](=O)[O-]

>  <growth inhibition / %>
0.25

$$$$
>  <COMPOUND>
CCCC(=N)OCC

>  <growth inhibition / %>
-5.05

$$$$
>  <COMPOUND>
COc1ccc(Cc2nnc(SC)n2-c2ccc(F)cc2)cc1OC

>  <growth inhibition / %>
16.6

$$$$
>  <COMPOUND>
CC1Cn2c(nnc2-c2ccccc2O)S1 (stereo not drawn)

>  <growth inhibition / %>
-12.6

$$$$
>  <COMPOUND>
Cc1nc2nncn2c(=O)[nH]1

>  <growth inhibition / %>
17.9

$$$$
>  <COMPOUND>
O=C1OC(c2ccccc2)=CC1Cc1ccccc1 (stereo not drawn)

>  <growth inhibition / %>
-8

$$$$
>  <COMPOUND>
O=C(NNc1ccccc1)NNc1ccccc1

>  <growth inhibition / %>
29.8

$$$$

Task: Please look at this compound and report its growth inhibition: CCCOC(=O)CCCCCC1CCCCC1
Output: 8

Task: Report measured growth inhibition; entry is C=CCC1(C(C)C(O)c2cc(OC)c(OC)c(OC)c2)CC(O)C=CC12OCCO2 (stereo not drawn)
Output: 24.6

Task: Indicate the recorded growth inhibition value for this compound: CC1=C(c2ccccc2)OS(=O)(=O)CC1N(C)C (stereo not drawn)
Output: -2.35

Task: Read the entry [NH-]C(CC(N)=O)C(=O)O.[NH-]C(CC(N)=O)C(=O)O.[Zn+2] (stereo not drawn) and write its reported growth inhibition.
Output: 5.25

Task: Please give measured growth inhibition of the following entry: COC(=O)C(C)CC(=O)c1ccc2ccc3cccc4ccc1c2c34 (stereo not drawn)
Output: -4.2

====

- PROTOCOL SUMMARY: NCI Yeast Anticancer Drug Screen. Data for the rad50 strain (AID 155);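 also: 0% = growth of vehicle-only cultures of the same strain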
- RUN CONDITIONS: S. cerevisiae rad50 strain growth inhibition; at 50.0 µM; hits give high values
Compounds without any hit were thinned out: in the full panel of roughly 79,000, 15% have a hit.
Recorded growth inhibition values for a group of molecules are listed next.
Provide only the numeric value, understood in %.

>  <MOLECULE>
COc1ccccc1NC(=O)Nc1ccc(Nc2ccccc2)cc1

>  <UNIT OF MEASURE>
%

>  <growth inhibition>
92.7

$$$$
>  <MOLECULE>
O=C(O)CC(NC(=O)CP(=O)(O)O)C(=O)O (stereo unspecified)

>  <UNIT OF MEASURE>
%

>  <growth inhibition>
-9.4

$$$$
>  <MOLECULE>
COc1cc2nncc(Sc3cnnc4ccccc34)c2cc1OC

>  <UNIT OF MEASURE>
%

>  <growth inhibition>
19.1

$$$$
>  <MOLECULE>
CC1CCCC(=O)CCC1

>  <UNIT OF MEASURE>
%

>  <growth inhibition>
2.9

$$$$

Task: Item Cc1cc(OCC(=O)O)c(C)cc1Cl : provide growth inhibition
Output: -21.6

Task: Report growth inhibition, nothing else, for this molecule: CCOC(=O)/C=C/SCCCN
Output: 3.95

Task: Answer with the recorded growth inhibition of O=C(O)C(Br)C(Br)C(=O)Nc1ccc(Br)cc1 (stereo unspecified) only.
Output: -6.35

Task: Indicate its recorded growth inhibition; the molecule in question is CCOC(=O)C(=CNC(=S)Nc1ccc(OCC)cc1)C(=O)OCC
Output: -9.75

Task: State, in one line, measured growth inhibition of Clc1ccc(N=Nc2ccccn2)cc1
Output: 18.1

Task: Supply recorded growth inhibition for CC(=O)NC1C(OC2C(CO)OC(OCC3OC(n4ccc(N)nc4=O)C(O)C3O)C(NC(C)=O)C2O)OC(CO)C(O)C1O (stereo unspecified) here.
Output: 31.9

Task: Return growth inhibition (reported value) for this molecule: O=[N+]([O-])c1ccc(C2SCc3nc4ccccc4n32)cc1 (stereo unspecified)
Output: 3.4

Task: Return value of growth inhibition for input Cc1cc(C)c2cccc-2c(C)c1 , no commentary.
Output: -11.8

Task: Report growth inhibition for NC(=O)/C(N=Nc1ccccc1)=N\Nc1ccccc1
Output: 94.2

Task: Provide one value: measured growth inhibition of Nc1ccc(F)cc1C(F)(F)F
Output: 6.65

====

Listed here are compounds together with their documented growth inhibition.
- PROTOCOL SUMMARY: NCI Yeast Anticancer Drug Screen. Data for the bub3 strain (AID 167)
- RUN CONDITIONS: S. cerevisiae bub3 mutant strain, at 50.0 µM, hits give high values
- Procedure: Growth inhibition of yeast strains with defined genetic alterations is measured as a screen for potential anti-cancer activity. Selected strains with alterations in DNA damage repair or cell cycle control were exposed to compounds and growth inhibition was measured relative to vehicle treated controls. The strain used in this assay is bub3
This is part of a sample that, as a whole, favours compounds with a hit. Of some 79,000 tested, about 15% had one in any assay. Where a SMILES comes first, the peptide text is derived from it. The star is where a group is joined. Boc = CC(C)(C)OC(=O)*; OBn = c1ccc(CO*)cc1
# unit: % | format: bare number

>  <COMPOUND>
CC(C)CC(NC(=O)OC(C)(C)C)C(=O)NC(CCC(=O)OCc1ccccc1)C(N)=O (stereo not drawn) (Boc-Leu-Glu(OBn)-NH2; configuration not given here)

>  <growth inhibition, %>
24.4

$$$$

Task: Fill in growth inhibition for record CCOC(=O)/C(C#N)=C(\C)c1ccccc1
Output: -25.7

Task: Return growth inhibition (reported value) for this compound: CC(=O)Nc1ccc(-c2nnc(SCC(=O)Nc3cccc(C)c3)o2)cc1
Output: 9.7

Task: Input CC(=O)c1c(C)n(-c2ccccc2)c2c1nnc1ccccc12 , output reported growth inhibition.
Output: -5.65

Task: State its growth inhibition: Cc1ccccc1N=Nc1c(O)n(-c2ccccc2)c(=S)n(-c2ccccc2)c1=O
Output: 2.2

====

- PROTOCOL SUMMARY: NCI Yeast Anticancer Drug Screen. Data for the mlh1 rad18 strain (AID 175)
- RUN CONDITIONS: S. cerevisiae mlh1 rad18 strain growth inhibition; at 50.0 µM; hits give high values
This is part of a sample that, as a whole, favours compounds with a hit. Of some 79,000 tested, about 15% had one in any assay.
The molecules listed here are annotated with their growth inhibition.
Report as a plain number; the unit % is understood.

>  <MOLECULE>
CC(O)C1OC(n2cnc3c(=S)nc[nH]c32)C(O)C1O (stereo unspecified)

>  <RESULT NUMBER>
-13.3

$$$$
>  <MOLECULE>
O=C1c2ccccc2C(O)(C#Cc2ccccc2)c2c1c(-c1ccccc1)c1ccccc1c2-c1ccccc1 (stereo unspecified)

>  <RESULT NUMBER>
10.4

$$$$
>  <MOLECULE>
NC1=NC(=O)N(C2CC(O)C(COP(=O)(O)O)O2)C(I)C1 (stereo unspecified)

>  <RESULT NUMBER>
13.2

$$$$

Task: Find the measured growth inhibition of COc1ccc(C(=O)N2CCN(C)CC2)cc1OC and report it.
Output: 4.2

Task: Item O=C(CCCSCCCC(=O)NN=C1CCSCC1)NN=C1CCSCC1 : provide growth inhibition
Output: -7.65

Task: Item CCOC(=O)c1c(C#N)c2cnn(-c3ccccc3)c2n2cccc12 : provide growth inhibition
Output: 36.1
